Consider the following compounds; for each one, report its EC50.
- Target Or Test System: κ-opioid receptor (Homo sapiens (Human), UniProt P41145)
- Experiment Notes: κ-opioid receptor [35S]GTPγS functional assay, U-2 OS cells (Table 5)
- Type: biochemical
- Settings: κ GTP
Numbers only, in µM.

Example entries and their recorded answers appear below.
COc1ccc2c(c1)C13CCN(CC4CC4)[C@H](C2)[C@]1(O)C[C@@H](N)C3 (stereo in doubt) [Compound 28] :: 0.179
NC(=O)[C@H]1C[C@]23CCN(CC(F)(F)F)[C@H](Cc4ccc(O)cc42)[C@]3(O)C1 [Compound 76] :: 0.923
COc1ccc2c(c1)[C@]13CCN(CC4CC4)[C@H](C2)[C@]1(O)C[C@@H](C(=O)O)C3 [Compound 15] :: 2.9

Here's the next entry for you.
query: # returns recorded EC50 (system: κ-opioid receptor (Homo sapiens (Human), UniProt P41145)) for COc1ccc2c(c1)[C@]13CCN(CC4CC4)[C@H](C2)[C@]1(O)C[C@H](N)C3 [Compound 21]
result: 5.59

----------
- Target Or Test System: human opioid receptor-like receptor (ORL-1) (Homo sapiens (Human))
- Experiment Notes: ORL-1 receptor radioligand binding assay ([3H]-nociceptin)
- Settings: binding affinity, bound given in μM, read-out: Ki ORL-1
Assay Metric: Ki

query: What does the data say about its Ki? Entry: `NC(=O)[C@@H]1C[C@]23CCN(CC4CC4)[C@H](Cc4ccc(O)cc42)[C@]3(O)C1`
result: > 20 µM

----------
- Target Or Test System: μ-opioid receptor (Homo sapiens (Human))
- Experiment Notes: μ-opioid receptor [35S]GTPγS functional assay, U-2 OS cells (Table 5)
- Type: biochemical
- Settings: relative to DAMGO
Assay Metric: Emax (%)
One number for each entry, in %.

Example entries and their recorded answers appear below.
COC(=O)[C@@H]1C[C@]23CCN(CC4CC4)[C@H](Cc4ccc(O)cc42)[C@]3(O)C1 :: 55.6
N[C@H]1CC23CCN(CC4CC4)[C@H](Cc4ccc(O)cc42)[C@]3(O)C1 (stereo in doubt) :: 22

I would be grateful if you could provide Emax for each of the following entries.
1. N[C@@H]1CC23CCN(CC4CC4)[C@H](Cc4ccc(O)cc42)[C@]3(O)C1 (stereo in doubt)
2. NC(=O)[C@@H]1C[C@]23CCN(CC(F)(F)F)[C@H](Cc4ccc(O)cc42)[C@]3(O)C1

result:
[20.7, 2]

----------
- Target Or Test System: μ-opioid receptor (Homo sapiens (Human), UniProt P35372)
- Experiment Notes: μ-opioid receptor [35S]GTPγS functional assay, HEK-293 or CHO cells (Table 4)
- Type: biochemical
- Settings: μ GTP
Simple rule here: EC50 less than 6 nM is Criterion met, otherwise Criterion not met.

Solved entries (count: 5):
O=C(NCCc1ccccc1)[C@H]1C[C@]23CCN(CC4CC4)[C@H](Cc4ccc(O)cc42)[C@]3(O)C1 [Compound 51] :: Criterion met
CN1CC[C@]23C[C@@H](C(N)=O)C[C@@]2(O)[C@H]1Cc1ccc(O)cc13 [Compound 77] :: Criterion not met
O=C(NCc1ccc(Cl)cc1Cl)[C@H]1C[C@]23CCN(CC4CC4)[C@H](Cc4ccc(O)cc42)[C@]3(O)C1 [Compound 45] :: Criterion met
COc1ccc2c(c1)[C@]13CCN(CC4CC4)[C@H](C2)[C@]1(O)C[C@H](C#N)C3 [Compound 25] :: Criterion not met
Cc1ccc(CNC(=O)[C@H]2C[C@]34CCN(CC5CC5)[C@H](Cc5ccc(O)cc53)[C@]4(O)C2)cc1 [Compound 38] :: Criterion met

Now for another entry.
query: Is it true that EC50 reported for O=C(NCc1ccc(Cl)cc1)[C@@H]1C[C@]23CCN(CC4CC4)[C@H](Cc4ccc(O)cc42)[C@]3(O)C1 [Compound 43] is less than 6 nM?
result: Criterion not met

meta.source: patent US9656962B2
